- Measurement target: human ghrelin receptor (GRLN, growth hormone secretagogue receptor, hGHS-R1a) (Homo sapiens, UniProt Q92847)
- Construct: purchased PerkinElmer BioSignal #RBHGHSM, lot#1887; host or cells: HEK-293 cells, stably transfected (membranes)
- Sequence (Q92847 whole entry): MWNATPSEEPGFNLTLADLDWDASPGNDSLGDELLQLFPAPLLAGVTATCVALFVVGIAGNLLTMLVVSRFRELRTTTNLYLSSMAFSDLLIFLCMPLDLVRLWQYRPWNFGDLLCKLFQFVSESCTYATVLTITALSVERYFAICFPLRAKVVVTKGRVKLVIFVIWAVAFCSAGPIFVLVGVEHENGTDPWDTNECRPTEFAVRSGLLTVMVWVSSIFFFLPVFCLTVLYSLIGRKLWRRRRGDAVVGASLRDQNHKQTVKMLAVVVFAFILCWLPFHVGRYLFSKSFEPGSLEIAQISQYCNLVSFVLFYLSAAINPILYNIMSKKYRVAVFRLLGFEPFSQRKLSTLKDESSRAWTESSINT
- Experiment summary: Competitive radioligand binding assay (ghrelin receptor), Method B1
- Condition description: Ghrelin receptor binding activity, Method B1
Overview of reported Ki across a group of molecules:

As a guide, the following entries are already answered.
Molecule: CCC(C)[C@@H]1NCCOc2ccccc2/C=C/[C@@H](C)NC(=O)[C@@H](Cc2ccccc2)NC(=O)[C@H](C(C)O)N(C)C1=O (stereo partly drawn)
Ki: 1 to 10 nM

Molecule: CC(O)[C@H]1C(=O)N[C@H](Cc2ccccc2)C(=O)NC/C=C/c2ccccc2OCCN[C@@H](C2CCCC2)C(=O)N1C (stereo partly drawn)
Ki: 10 to 100 nM

Molecule: CCC(C)[C@@H]1NCCOc2cc(F)ccc2CC[C@H](C)NC(=O)[C@@H](Cc2ccccc2)NC(=O)[C@H](C(C)O)N(C)C1=O (stereo partly drawn)
Ki: 10 to 100 nM

Molecule: CCC(C)[C@@H]1N[C@H](C)COc2ccccc2CCCNC(=O)[C@@H](Cc2ccccc2)NC(=O)[C@H](C(C)O)N(C)C1=O (stereo partly drawn)
Ki: 100 to 500 nM

Molecule: CC(O)[C@H]1C(=O)N[C@H](Cc2ccccc2)C(=O)NC/C=C/c2ccccc2OCCN[C@@H](CO)C(=O)N1C (stereo partly drawn)
Ki: > 500 nM

For the next question, use this molecule.
What does the data say about its Ki? Entry: CCC(C)[C@@H]1NCCOc2ccccc2/C=C/CNC(=O)[C@@H](Cc2ccc(N)cc2)NC(=O)[C@H](C(C)O)N(C)C1=O (stereo partly drawn)
10 to 100 nM

* * *

- Experiment summary: Pharmacokinetic analysis (intravenous and oral), Method B9
- Assay type: in vivo
- Condition description: plasma; Table 10b; 2 mg/mL intravenous and 8 mg/mL oral typically employed
Readout label: bioavailability (%)
Answer format: numeric, % implied, no suffix.

What does the data say about its bioavailability? Entry: CC(O)[C@H]1C(=O)N[C@H](Cc2ccccc2)C(=O)NCC#Cc2c(F)cccc2OCCN[C@@H](C2(C)CC2)C(=O)N1C (stereo partly shown) [Compound 1876]
54

* * *

- Experiment summary: Caco-2 permeability, Method B7
- Type: in vitro ADME, human
- Condition description: human; Caco-2, without P-gp inhibitor; read-out: Efflux ratio Papp B2A/Papp A2B
Readout label: efflux ratio at 60 min, 10 μM

Compound: CC(C)[C@@H]1NCCOc2ccccc2C[C@H](O)[C@@H](C)NC(=O)[C@@H](Cc2cccc(F)c2)NC(=O)[C@H](C(C)O)N(C)C1=O (some centres unmarked)
efflux ratio at 60 min, 10 μM: 109
//
Compound: CC(O)[C@H]1C(=O)N[C@H](Cc2ccccc2)C(=O)NCC#Cc2ccccc2OCCN[C@@H](C2(C)CC2)C(=O)N1C (some centres unmarked)
efflux ratio at 60 min, 10 μM: 151
//
Compound: CC(O)[C@H]1C(=O)N[C@H](Cc2ccccc2)C(=O)NCC#Cc2c(F)cccc2OCCN[C@@H](C2(C)CC2)C(=O)N1C (some centres unmarked)
efflux ratio at 60 min, 10 μM: 288
//
Compound: CC(O)[C@H]1C(=O)N[C@H](Cc2ccccc2)C(=O)NCCCc2cccc3c2OC(CC3)CN[C@@H](C2CC2)C(=O)N1C (some centres unmarked)
efflux ratio at 60 min, 10 μM: 169
//
Compound: CC[C@@H]1NCC2CCc3cccc(c3O2)CCCNC(=O)[C@@H](Cc2ccccc2)NC(=O)[C@H](C(C)O)N(C)C1=O (some centres unmarked)
efflux ratio at 60 min, 10 μM: 297
//
Compound: CC(C)[C@@H]1NCCOc2ccccc2C2CCC(C2)NC(=O)[C@@H](Cc2ccc(F)cc2)NC(=O)[C@H](C(C)O)N(C)C1=O (some centres unmarked)
efflux ratio at 60 min, 10 μM: 203
//
Compound: CC(C)[C@@H]1NCCOc2ccccc2C#C[C@@H](C)NC(=O)[C@@H](Cc2ccccc2)NC(=O)[C@H](C(C)O)N(C)C1=O (some centres unmarked)
efflux ratio at 60 min, 10 μM: 318
//
Compound: CC(C)[C@@H]1NCCOc2cccc(F)c2C#CCNC(=O)[C@@H](Cc2ccccc2)NC(=O)[C@H](C(C)O)N(C)C1=O (some centres unmarked)
efflux ratio at 60 min, 10 μM: 216
//
Compound: CC[C@@H]1CCc2ccc(F)cc2OCCN[C@@H](C(C)C)C(=O)N(C)[C@@H](C(C)O)C(=O)N[C@H](Cc2c[nH]c3ccccc23)C(=O)N1 (some centres unmarked)
efflux ratio at 60 min, 10 μM: 299

[I] CC(C)[C@@H]1NCCOc2ccccc2C2CCC(C2)NC(=O)[C@@H](Cc2ccccc2)NC(=O)[C@H](C(C)O)N(C)C1=O (some centres unmarked)
[II] CC(O)[C@H]1C(=O)N[C@H](Cc2ccccc2)C(=O)NCC#Cc2ccc(F)cc2OCCN[C@@H](C2(C)CC2)C(=O)N1C (some centres unmarked)
Please tell me which of the two, I or II , has the higher reported efflux ratio at 60 min, 10 μM value. Please indicate the selected item by its label.
II
(II: 380, I: 241)

* * *

Overview of reported IC50 across a group of molecules:
- Measurement target: ghrelin receptor (HEK-GHSR1 stable cells) (Homo sapiens, UniProt Q92847)
- Construct: expressed in transfected cells
- Sequence (Q92847 whole entry): as above
- Experiment summary: Ghrelin receptor inverse agonist assay (HTRF IP-one), Method B4
- Format: cell-based
- Condition description: inverse agonist at the ghrelin receptor, Method B4

As a guide, the following entries are already answered.
Molecule: CCC1CCc2ccc(Cl)cc2OCCNC(C(C)C)C(=O)N(C)C(C(C)O)C(=O)NC(Cc2cccc(F)c2)C(=O)N1 (stereo not drawn)
Recorded measurement: 100 to 500 nM
//
Molecule: CC(C)[C@@H]1NCCOc2ccccc2C#C[C@@H](C)NC(=O)[C@@H](Cc2ccc(F)cc2)NC(=O)[C@H](C(C)O)N(C)C1=O (stereo partly drawn)
Recorded measurement: 10 to 50 nM
//
Molecule: CC[C@@H]1C#Cc2ccc(F)cc2OCCN[C@@H](C(C)C)C(=O)N(C)[C@@H](C(C)O)C(=O)N[C@H](Cc2ccccc2)C(=O)N1 (stereo partly drawn)
Recorded measurement: 50 to 100 nM

Query for ghrelin receptor (HEK-GHSR1 stable cells) (Homo sapiens, UniProt Q92847): what IC50 does the record show for CC[C@@H]1CCc2ccc(F)cc2OCCN[C@@H](C2(C)CC2)C(=O)N(C)[C@@H](C(C)O)C(=O)N[C@H](Cc2ccc(Cl)cc2)C(=O)N1 (stereo partly drawn) ?
50 to 100 nM

Thanks! And CC(C)[C@@H]1NCCOc2ccccc2C2CCC(C2)NC(=O)[C@@H](Cc2c[nH]c3ccccc23)NC(=O)[C@H](C(C)O)N(C)C1=O (stereo partly drawn) ?
10 to 50 nM

Thanks! And CCC(C)C1NCCOc2cccc(F)c2C=CCNC(=O)C(Cc2ccc(Cl)cc2)NC(=O)C(C(C)O)N(C)C1=O (stereo not drawn) ?
50 to 100 nM

* * *

- Measurement target: UniProt:P10635
- Sequence (P10635 whole entry): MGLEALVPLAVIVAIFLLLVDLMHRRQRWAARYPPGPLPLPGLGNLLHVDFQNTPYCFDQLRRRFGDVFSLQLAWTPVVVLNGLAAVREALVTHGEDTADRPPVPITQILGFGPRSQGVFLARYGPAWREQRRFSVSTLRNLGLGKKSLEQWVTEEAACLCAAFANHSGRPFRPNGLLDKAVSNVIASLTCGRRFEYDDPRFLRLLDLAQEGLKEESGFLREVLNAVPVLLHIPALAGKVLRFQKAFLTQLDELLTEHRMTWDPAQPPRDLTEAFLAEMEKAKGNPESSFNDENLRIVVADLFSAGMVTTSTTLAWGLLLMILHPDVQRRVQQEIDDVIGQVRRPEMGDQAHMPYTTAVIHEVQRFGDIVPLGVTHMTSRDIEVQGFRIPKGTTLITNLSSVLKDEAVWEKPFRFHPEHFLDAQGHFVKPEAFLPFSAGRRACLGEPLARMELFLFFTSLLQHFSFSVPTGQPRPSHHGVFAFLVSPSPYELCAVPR
- Experiment summary: Cytochrome P450 inhibition, Method B6
- Condition description: read-out: IC50 CYP 2D6; Table 4a; dextromethorphan used as substrate
Readout label: IC50 (µM)

[1] CC(C)[C@@H]1NCCOc2ccccc2C2CCC(C2)NC(=O)[C@@H](Cc2c[nH]c3ccccc23)NC(=O)[C@H](C(C)O)N(C)C1=O (some centres unmarked)
[2] CC(C)[C@@H]1NCC2CCc3cccc(c3O2)CCCNC(=O)[C@@H](Cc2ccccc2)NC(=O)[C@H](C(C)O)N(C)C1=O (some centres unmarked)
Please tell me which of the two, 1 or 2 , has the higher reported IC50 value. Please indicate the selected item by its label.
2

* * *

- Measurement target: human ghrelin receptor (GRLN, growth hormone secretagogue receptor, hGHS-R1a) (Homo sapiens)
- Construct: purchased PerkinElmer BioSignal #RBHGHSM, lot#1887; host or cells: HEK-293 cells, stably transfected (membranes)
- Experiment summary: Competitive radioligand binding assay (ghrelin receptor), Method B1
- Condition description: Ghrelin receptor binding activity, Method B1
- Experimental: Multiscreen Harvest plates-GF/C (Millipore, #MAHFC1H60) • 4. […] Bottom seal (Millipore, #MATAH0P00) • 7. […] Binding Buffer: 25 mM Hepes (pH 7.4), 1 mM CaCl2, 5 mM MgCl2. 2.5 mM EDTA, 0.4% BSA […] Plates were sealed with TopSeal-A, vortexed gently and incubated at rt for 30 min. […] Plates were than sealed with TopSeal-A and counted for 30 sec per well on a TopCount Microplate Scintillation and Luminescence Counter (PerkinElmer) using a count delay of 60 sec. Results were expressed as counts per minute (cpm). […]
pIC50: −log10 of the molar value.
Readout label: pIC50

Molecule: CC(O)[C@H]1C(=O)N[C@H](Cc2ccc(Cl)cc2)C(=O)NC/C=C/c2ccccc2OCCN[C@@H](C2CC2)C(=O)N1C (stereo partly drawn) [Compound 1728]
pIC50: 7.00 to 8.00
--
Molecule: CCC(C)C1NCCOc2ccccc2C#CCNC(=O)C(Cc2ccc(Cl)cc2)NC(=O)C(C(C)O)N(C)C1=O (stereo not drawn) [Compound 1704]
pIC50: 7.00 to 8.00
--
Molecule: CC(O)[C@H]1C(=O)N[C@H](Cc2ccc(Cl)cc2)C(=O)N[C@H](C)CCc2ccc(F)cc2OCCN[C@@H](C2(C)CC2)C(=O)N1C (stereo partly drawn) [Compound 1872]
pIC50: 8.00 to 9.00

What does the data say about its pIC50? Entry: CCC(C)[C@@H]1NCCOc2ccccc2/C=C/[C@H](C)NC(=O)[C@@H](Cc2ccccc2)NC(=O)[C@H](C(C)O)N(C)C1=O (stereo partly drawn) [Compound 1316]
7.00 to 8.00

Thanks! And CC[C@@H]1C#Cc2ccccc2OCCN[C@@H](C(C)C)C(=O)N(C)[C@@H](C(C)O)C(=O)N[C@H](Cc2c[nH]c3ccccc23)C(=O)N1 (stereo partly drawn) [Compound 1754] ?
8.00 to 9.00

Thanks! And CC[C@@H]1C#Cc2ccc(F)cc2OCCN[C@@H](C(C)C)C(=O)N(C)[C@@H](C(C)O)C(=O)N[C@H](Cc2c[nH]c3ccccc23)C(=O)N1 (stereo partly drawn) [Compound 1755] ?
8.00 to 9.00

All figures here come from patent US20110105389A1.
